- Target Or System: human neutrophil elastase (HNE) (Homo sapiens, UniProt P08246)
- Sequence (P08246 30-247): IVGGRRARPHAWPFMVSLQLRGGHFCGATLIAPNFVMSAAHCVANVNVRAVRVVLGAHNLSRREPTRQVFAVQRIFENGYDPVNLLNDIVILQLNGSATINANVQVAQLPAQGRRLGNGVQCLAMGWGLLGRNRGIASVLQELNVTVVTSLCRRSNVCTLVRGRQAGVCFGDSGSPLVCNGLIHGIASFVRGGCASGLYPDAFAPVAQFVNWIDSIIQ
- Test Protocol: chromogenic enzyme assay with MeO-Suc-AAPV-pNA; Lineweaver-Burk and Dixon plots
Property Label: pKi
Quick note: pKi means taking -log10 of the concentration in moles per liter.

Lookup: Annotate the compound C=C1C(=O)O[C@@H]2CC(C)=C([C@@H](C)CCCOC(C)=O)[C@@H](O)[C@H]12 with its measured pKi.
Found: 5.62

----------
- Target Or System: human neutrophil elastase (HNE) (Homo sapiens)
- Test Protocol: chromogenic enzyme assay with MeO-Suc-AAPV-pNA (positive control)
Property Label: pIC50
Quick note: pIC50 means taking -log10 of the concentration in moles per liter.

Lookup: Annotate the molecule O=C(O[C@@H]1Cc2c(O)cc(O)cc2O[C@@H]1c1cc(O)c(O)c(O)c1)c1cc(O)c(O)c(O)c1 [epigallocatechin gallate] with its measured pIC50.
Found: 5.14
